test system: Jurkat; assay: Growth inhibitory activity against human Jurkat leukemia cell line (JLC); type: functional, cell-based
Labelling: IC50 reported below 7 nM becomes MET; at or above becomes NOT MET.

Cc1cccc2cc3c(=O)n(CCN(C)C)cc(C(=O)NCCN(C)C)c3nc12; NOT MET
COc1ccc(-n2cc(C(=O)NCCN(C)C)c3nc4c(C)cccc4cc3c2=O)cc1OC; NOT MET
Cc1cccc2cc3c(=O)n(C)cc(C(=O)NCCN(C)C)c3nc12; MET
Cc1cccc2cc3c(=O)n(CCN(C)CCCN(C)CCn4cc(C(=O)NCCN(C)C)c5nc6c(C)cccc6cc5c4=O)cc(C(=O)NCCN(C)C)c3nc12; MET

Next item in the queue.
Request: Hello, I'm reviewing records and need to know if IC50 of "CCCCn1cc(C(=O)NCCN(C)C)c2nc3c(C)cccc3cc2c1=O" is below 7 nM. Could you check?
Result: NOT MET

# credit: ChEMBL document CHEMBL1136718
